- Tested on: JNK3
- Construct: gene MAPK10
- assayContext: concentration: 1 μM, replicates: in singlicate; n = 1;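 also: KINOMEscan kinase panel screen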
Please go through the items and note down their %Inh.
Report the figure in % without appending any unit label.

[Q] %Inh for `Cc1cccc(Nc2nc(NCCN)ncc2C(N)=O)c1` ?
[A] 23

[Q] Could you share which %Inh value was measured for `CN(C)c1ncnc2nc[nH]c12` ?
[A] 0

[Q] Need %Inh of `O=C(Nc1n[nH]c2cc(-c3cccs3)ccc12)C1CC1` , thanks.
[A] 48

[Q] If you can, please state the reported %Inh value of `O=C(Nc1c(F)cccc1F)c1cc(C(=O)c2ccccc2F)c[nH]1` .
[A] 0

[Q] Look at this molecule and give its reported %Inh. `Cn1cc(-c2cnc(N)c3c(-c4ccc5c(c4)CCN5C(=O)Cc4ccccc4)csc23)cn1`
[A] 0

[Q] Query: %Inh; subject: `CN(c1ccc(NC(=O)N2CCN(CCCN3CCOCC3)CC2)cc1)c1ccnc(Nc2ccc(CS(C)(=O)=O)cc2)n1.Cl`
[A] 0

[Q] What value of measured %Inh is listed for `O=C1NC(=O)C(c2ccccc2Cl)=C1Nc1cccc(Cl)c1` ?
[A] 3

[Q] For the molecule shown here, `O=C(O)C(F)(F)F.O=c1[nH]ccc2nc(N[C@@H]3CCNC3)nc(Nc3cc(Cl)cc(Cl)c3)c12` , give the reported %Inh.
[A] 25

[Q] # lookup: %Inh of `CC(C)c1nc(-c2cccc(NS(=O)(=O)c3c(F)cccc3F)c2)c(-c2ccnc(Nc3ccc(N4CCOCC4)nc3)n2)s1.Cl`
[A] 7

[Q] Any idea what %Inh was measured for `N#Cc1cnc2cc(-c3cnc(CNCCN4CCOCC4)s3)ccc2c1Nc1ccc(Oc2ccccc2)cc1` ?
[A] 0

[Q] Bench note: what %Inh did `Nc1ncnc2scc(-c3ccc(NC(=O)Cc4cc(F)ccc4F)cc3)c12.O=C(O)C(F)(F)F` show?
[A] 18

[Q] Fill blank: measured %Inh of the molecule `CNc1nccc(-c2ccc3c(N)n[nH]c3c2)n1` is ____.
[A] 29

[Q] I'd like to know its %Inh. The molecule in question is `COc1ccc(C2=C(Nc3cccc(O)c3)C(=O)NC2=O)cc1`
[A] 1

[Q] If you can, please state the reported %Inh value of `CN(C)CCNS(=O)(=O)c1ccc(-c2ccnc3[nH]ccc23)cc1` .
[A] 15

[Q] I am curious: what %Inh value has been reported for `CC(C)c1nc(-c2ccc(F)c(NS(=O)(=O)c3c(F)cccc3F)c2)c(-c2ccnc(Nc3ccc(N4CCOCC4)nc3)n2)s1` ?
[A] 77

[Q] Using the record for `COc1ccc(C)c(Nc2ccnc(Nc3ccc(-c4cnc[nH]4)cc3)n2)c1.Cl` , report its %Inh.
[A] 0

[Q] Can you share its %Inh? I mean this molecule: `CN(c1ccc(F)c(NC(=O)c2cccc(OC(C)(C)C#N)c2Cl)c1)c1ccc2nc(NC(=O)C3CC3)sc2n1`
[A] 20

====

- System: STK16
- assayContext: concentration: 1 μM, replicates: in singlicate; n = 1
valueKind: %Inh (%)
Note: unit % is implicit; provide only the numeric part.

[Q] Can you share its %Inh? I mean this molecule: `O=C(Nc1c(F)cccc1F)c1cc(C(=O)c2ccccc2F)c[nH]1`
[A] 0

[Q] Please look up its %Inh: `CN(C)CCOc1ccc(-c2cc(-c3ccc(Cl)c(O)c3)c(-c3ccncc3)[nH]2)cc1.Cl.Cl`
[A] 14

[Q] For the molecule shown here, `Cc1ccccc1CC(=O)N1CCc2cc(-c3cn(C)c4ncnc(N)c34)ccc21` , give the reported %Inh.
[A] 2

[Q] Please report the recorded %Inh for `Cl.O=C(Nc1ccc(Oc2ccc3[nH]c(NC(=O)c4ccco4)nc3c2)cc1)Nc1cc(C(F)(F)F)ccc1F` .
[A] 0

[Q] Would you mind telling me what %Inh value was observed for `Fc1cc(Cl)ccc1Nc1ccnc2cc(-c3ccc(CN4CCSCC4)o3)ccc12` ?
[A] 0

[Q] Which %Inh reading was recorded for the molecule `CC(C)(C)c1ccc(C(=O)Nc2cn3cc(-n4ccnc4)ccc3n2)cc1` ?
[A] 19

[Q] May I ask what %Inh has been recorded for `O=C(Nc1n[nH]c2nc(-c3ccccc3O)ccc12)C1CC1` ?
[A] 15

[Q] State the recorded %Inh for this entry: `Fc1cc(Cl)ccc1Nc1ccnc2cc(-c3ccc(CN4CCOCC4)o3)ccc12`
[A] 0

[Q] May I ask what %Inh has been recorded for `COc1ccc(C2=C(Nc3cccc(O)c3)C(=O)NC2=O)cc1` ?
[A] 34

[Q] # get_value(readout='%Inh', item= `CN(c1ccc(F)c(NC(=O)c2cccc(OC(C)(C)C#N)c2Cl)c1)c1ccc2nc(NC(=O)C3CC3)sc2n1` )
[A] 0

[Q] // %Inh lookup, key: `Cc1ccc(NC(=O)c2ccc(Cl)c(Cl)c2)cc1-c1ccc(C(=O)Nc2ccncc2)cc1`
[A] 14

[Q] If you can, please state the reported %Inh value of `COc1cccc(CC(=O)N2CCc3cc(-c4cn(C)c5ncnc(N)c45)ccc32)c1` .
[A] 9

[Q] # lookup: %Inh of `CNc1nccc(-c2ccc3c(N)n[nH]c3c2)n1`
[A] 34

[Q] Please report the recorded %Inh for `O=C(O)C(F)(F)F.O=c1[nH]ccc2nc(N[C@@H]3CCNC3)nc(Nc3cc(Cl)cc(Cl)c3)c12` .
[A] 95

[Q] Field request: %Inh | item: `Cn1cc(-c2ccc3c(c2)CCN3C(=O)Cc2cc(F)cc(F)c2F)c2c(N)ncnc21`
[A] 0

[Q] Record request: %Inh value, item `CC(C)c1nc(-c2ccc(F)c(NS(=O)(=O)c3c(F)cccc3F)c2)c(-c2ccnc(Nc3ccc(N4CCOCC4)nc3)n2)s1`
[A] 39

[Q] Which %Inh is listed for CC(C)NCC(Cc1ccccc1)NC(=O)c1cc(Br)c(-c2ccnc3[nH]ccc23)s1.Cl.Cl (centres unmarked) ?
[A] 46

====

- Tested on: TNIK
- assayContext: concentration: 1 μM, replicates: in singlicate; n = 1
Label rule, in plain words: %Inh of 10% and up is Met, under 10% is Not met.

[Q] I'd appreciate it if you could say whether `CC(C)c1nc(-c2cccc(NS(=O)(=O)c3c(F)cccc3F)c2)c(-c2ccnc(Nc3ccc(N4CCOCC4)nc3)n2)s1.Cl` has %Inh at least equal to 10%.
[A] Met

[Q] Determine whether this compound has %Inh no lower than 10%: `Nc1ncc(-c2cn[nH]c2)c2scc(-c3ccc4c(c3)CCN4C(=O)Cc3ccccc3)c12`
[A] Met

[Q] Please indicate if the recorded %Inh for `O=C(O)C(F)(F)F.O=c1[nH]ccc2nc(N[C@@H]3CCNC3)nc(Nc3cc(Cl)cc(Cl)c3)c12` meets or exceeds 10%.
[A] Met

[Q] Please indicate if the recorded %Inh for COc1cc(Nc2nccc(N3CCC(NC(=O)Nc4ccc5c(c4)OCO5)C3)n2)cc(OC)c1OC (stereo not drawn) meets or exceeds 10%.
[A] Not met

[Q] Say whether `COc1ccc(NC(=O)c2ccoc2)cc1-c1ccc(C(=O)NCC2CC2)cc1` shows %Inh of 10% or more.
[A] Met

[Q] Check the entry `CN1CCN(Cc2ccc(NC(=O)Nc3ccc(N(C)c4ccnc(Nc5ccc(CS(C)(=O)=O)cc5)n4)cc3)cc2)CC1.Cl` : does %Inh equal or exceed 10%?
[A] Met

[Q] Is %Inh at least 10%? Consider CC(C)NCC(Cc1ccccc1)NC(=O)c1cc(Br)c(-c2ccnc3[nH]ccc23)s1.Cl.Cl (stereo not drawn)
[A] Not met

[Q] # check: %Inh of `O=C(Nc1c(F)cccc1F)c1cc(C(=O)c2ccccc2F)c[nH]1` is greater than or equal to 10%
[A] Met

[Q] Please indicate if the recorded %Inh for `COc1cccc(C2=C(Nc3cccc(O)c3)C(=O)NC2=O)c1` meets or exceeds 10%.
[A] Not met

[Q] Entry `COc1ccc(C2=C(Nc3cccc(O)c3)C(=O)NC2=O)cc1` : is its %Inh no less than 10%?
[A] Not met

[Q] Reported %Inh at or above 10%? `CN(c1ccc(F)c(NC(=O)c2cccc(OC(C)(C)C#N)c2Cl)c1)c1ccc2nc(NC(=O)C3CC3)sc2n1`
[A] Met

[Q] Please check the record `CN(C)CCOc1ccc(-c2cc(-c3ccc(Cl)c(O)c3)c(-c3ccncc3)[nH]2)cc1.Cl.Cl` and state if its %Inh is at or above 10%.
[A] Met

[Q] Does the reported %Inh for `CN(c1ccc2c(c1)nc(NCc1ccccc1)n2C)c1ccnc(Nc2ccc(CS(C)(=O)=O)cc2)n1.Cl` fall at or above the 10% mark?
[A] Met

[Q] Evaluate `CN(C)CCNS(=O)(=O)c1ccc(-c2ccnc3[nH]ccc23)cc1` : %Inh at minimum 10%?
[A] Not met

[Q] hey, is %Inh for this one >= 10%? `Cc1cccc(Nc2nc(N[C@H]3CCCC[C@H]3N)ncc2C(N)=O)c1.Cl`
[A] Met

[Q] Determine whether this compound has %Inh no lower than 10%: `Cc1ccc(NC(=O)c2cccc(N3CCCCC3)c2)cc1-c1ccc(C(=O)NCC2CC2)cc1`
[A] Not met

[Q] Reported %Inh at or above 10%? `N#CC1(c2cccc(C(=O)Nc3cccc(Oc4ccc5nc(NC(=O)C6CC6)sc5n4)c3)c2)CC1`
[A] Met

[Q] Determine whether measured %Inh meets or exceeds 10% for `Cc1ccc(NC(=O)c2ccc(Cl)c(Cl)c2)cc1-c1ccc(C(=O)Nc2ccncc2)cc1`
[A] Not met

[Q] Is it the case that `COC(=O)Nc1nc2cc(Oc3ccc(NC(=O)Nc4cccc(SC)c4)cc3)ccc2[nH]1.Cl` has %Inh reaching or exceeding 10%?
[A] Not met

[Q] Check the entry `Cc1ccccc1CC(=O)N1CCc2cc(-c3cn(C)c4ncnc(N)c34)ccc21` : does %Inh equal or exceed 10%?
[A] Not met

[Q] Entry `Cc1cccc(Nc2nc(NCCN)ncc2C(N)=O)c1` : is its %Inh no less than 10%?
[A] Met

[Q] Is %Inh for `CCNC(=O)/C=C/c1n[nH]c2cc(Sc3ccccc3C(=O)NC)ccc12` at or above 10%?
[A] Met

[Q] Does the compound Cl.Cl.NC(CNC(=O)c1cc(Br)c(-c2ccnc3[nH]ccc23)s1)c1ccccc1 (stereo not drawn) have recorded %Inh that is 10% or more?
[A] Met

[Q] Has `Fc1cc(Cl)ccc1Nc1ccnc2cc(-c3ccc(CN4CCOCC4)o3)ccc12` a recorded %Inh greater than or equal to 10%?
[A] Met

[Q] Could you verify whether the entry Cc1ccc(-c2ccc3occ(-c4ccc(S(C)=O)cc4)c3c2)nn1 (stereo not drawn) shows %Inh of no less than 10%?
[A] Not met

[Q] Test whether the compound `COC(=O)Nc1nc2ccc(Oc3ccc(CC(=O)Nc4cc(C(F)(F)F)ccc4F)cc3)cc2[nH]1` records %Inh of 10% or higher.
[A] Not met

[Q] Evaluate `Cn1cc(-c2cnc(N)c3c(-c4ccc5c(c4)CCN5C(=O)Cc4ccccc4)csc23)cn1` : %Inh at minimum 10%?
[A] Not met

[Q] For this compound, is measured %Inh 10% or higher? `CN(c1ccc(NC(=O)N2CCN(CCCN3CCOCC3)CC2)cc1)c1ccnc(Nc2ccc(CS(C)(=O)=O)cc2)n1.Cl`
[A] Met

[Q] Evaluate `Cl.N#CCc1ccc(Nc2nccc(Nc3ccc(Oc4ccccc4)cc3)n2)cc1` : %Inh at minimum 10%?
[A] Not met

[Q] Quick check, %Inh >= 10%? `CC(=O)Nc1cn2nc(Oc3cccc(NC(=O)c4cccc(C(F)(F)F)c4)c3)ccc2n1`
[A] Met

[Q] Check this compound for %Inh at or above 10%: `COc1cc(Nc2ccnc3cc(-c4ccncc4)ccc23)cc(OC)c1OC.Cl`
[A] Met

[Q] Hi, just wondering whether `COc1cccc(CC(=O)N2CCc3cc(-c4cn(C)c5ncnc(N)c45)ccc32)c1` shows %Inh of 10% or higher.
[A] Met
